Could you please report measured melting point for the items listed next?

Exercise: Read the entry `O=C(CBr)c1cc(OCc2ccccc2)c(OCc2ccccc2)c(OCc2ccccc2)c1` and write its reported melting point.
Solution: 112 to 113 °C

Exercise: Read the entry `C=CCN1Cc2nc3c(cnn3C=C)c(N)c2C1=O` and write its reported melting point.
Solution: 190 to 191 °C

Exercise: Read the entry CCOc1ccc(C2=NN(CCCCOc3ccc(C4=NNC(=O)CC4C)cc3)C(=O)C3CC=CCC23)cc1OCC (centres undefined) and write its reported melting point.
Solution: 73 to 78 °C

Exercise: Read the entry `Cc1cc(C#N)ccc1-c1ccc(C=O)cc1` and write its reported melting point.
Solution: 130 °C

Exercise: Read the entry CCCCCCCCC(O)C(O)CCCCCCCCCCCC(N)=O (centres undefined) and write its reported melting point.
Solution: 153 to 154 °C

Exercise: Read the entry `COc1ccc(N2CC(=O)c3ccccc3S2)cc1O` and write its reported melting point.
Solution: 228 to 232 °C

Exercise: Read the entry `Clc1ccc(-c2csc(-c3cnccc3Cl)n2)cc1` and write its reported melting point.
Solution: 149 to 150 °C

Exercise: Read the entry O=C(O)CC1CCCc2c(n(Cc3ccc(-n4ccnc4)cc3)c3ccc(F)cc23)C1 (centres undefined) and write its reported melting point.
Solution: 237 °C

Exercise: Read the entry `CC(=O)Nc1ccc2c(c1)cc(C(=O)c1ccc(F)cc1)n2C` and write its reported melting point.
Solution: 213 to 215 °C

Exercise: Read the entry COc1ccc(C2Sc3cc(Oc4cccc(C)c4)ccc3NC(=O)C2O)cc1 (centres undefined) and write its reported melting point.
Solution: 201 to 202 °C

Exercise: Read the entry `CCC(C)(C)N1CCN(C(=O)Nc2ccc3[nH]c(C(=O)N4CCN(c5ncccc5NC(C)C)CC4)cc3c2)CC1` and write its reported melting point.
Solution: 240 to 242 °C

Exercise: Read the entry `c1ccc(CN2CCCCC2)c(CN2CCCCC2)c1` and write its reported melting point.
Solution: 86 to 88 °C

Exercise: Read the entry `c1ccc(N(c2ccccc2)c2ccc(N(c3ccccc3)c3ccccc3)cc2)cc1` and write its reported melting point.
Solution: 200 to 202 °C

Exercise: Read the entry `COc1cccc(-c2nc3c([nH]2)C(C)(C)CS(=O)(=O)CC3(C)C)c1` and write its reported melting point.
Solution: 217 to 219 °C

Exercise: Read the entry `O=C(O)CON=c1c2nccc3cccc(c32)n2cccc12` and write its reported melting point.
Solution: 212 °C

Exercise: Read the entry `CCCC(=O)NCc1nc(-c2ccc3c(c2)Nc2ccccc2S3)cs1` and write its reported melting point.
Solution: 218 to 220 °C

Exercise: Read the entry `CCCc1nc2c(N)nc(C)c(C)c2n1CCCCS(=O)(=O)N(C)C` and write its reported melting point.
Solution: 127 to 128 °C

Exercise: Read the entry `CC(C)(C)C(=O)OCCOCn1cnc2c(=O)[nH]c(N)nc21` and write its reported melting point.
Solution: 245 to 246 °C

Exercise: Read the entry `N#Cc1cccn1-c1cc(C(=O)N=C(N)N)cc(C(=O)N=C(N)N)c1` and write its reported melting point.
Solution: 251 to 253 °C

Exercise: Read the entry `CP(C)(=O)CN1CCC(Oc2c(F)c(F)c(F)c(F)c2F)CC1` and write its reported melting point.
Solution: 120 to 123 °C

Exercise: Read the entry Cc1cncc(-c2cncc(OC3SCC(O)C(O)C3O)c2)c1 (centres undefined) and write its reported melting point.
Solution: 119 to 120 °C

Exercise: Read the entry `Cc1cc([N+](=O)[O-])ccc1C(=O)N=CN(C)C` and write its reported melting point.
Solution: 118 to 121 °C

Exercise: Read the entry `On1c(C(F)(F)F)nc2nc(Cl)c(Cl)cc21` and write its reported melting point.
Solution: 207 to 208 °C

Exercise: Read the entry `COc1cc(C)c(C=C2COCC(=Cc3cc(C)c(OC)cc3C)C2=O)cc1C` and write its reported melting point.
Solution: 182 to 184 °C

Exercise: Read the entry O=C1CCCC2ON(Cc3ccccc3)C3C(CSC23)N1 (centres undefined) and write its reported melting point.
Solution: 161 to 162 °C

Exercise: Read the entry `CC(=O)N(C)CC(=O)c1ccc2c(c1)OCO2` and write its reported melting point.
Solution: 99 to 101 °C

Exercise: Read the entry `CCC(C)(C)c1ccc(OCCCNC(=O)c2cc(OS(=O)(=O)CCCOc3ccc([N+](=O)[O-])cc3)c3ccccc3c2O)c(C(C)(C)CC)c1` and write its reported melting point.
Solution: 140 to 141 °C

Exercise: Read the entry CCC(C)N(C)C(=O)c1cc(-c2ccccc2)c2ccsc2c1 (centres undefined) and write its reported melting point.
Solution: 84 °C

Exercise: Read the entry `CC(C)(C)c1cc(-c2nn(CC3CC3)c3ncccc23)cc(C(C)(C)C)c1O` and write its reported melting point.
Solution: 135 to 137 °C

Exercise: Read the entry `COc1ccc2c(c1)C(=O)N(CCCN(C)CCN1C(=O)c3ccccc3C(C)(C)C1=O)C(=O)C2(C)C` and write its reported melting point.
Solution: 158 °C

Exercise: Read the entry `COc1ccc(NC(=O)c2ccc(Cl)c(Cl)c2)cc1[N+](=O)[O-]` and write its reported melting point.
Solution: 215 to 218 °C

Exercise: Read the entry `CCCc1ncc2cc(OC)nc(SC)n12` and write its reported melting point.
Solution: 98 to 100 °C

Exercise: Read the entry CCCC(C)(Oc1ccccc1C)C(=O)OC1CC(O)C=C2C=CC(C)C(CCC3CC(O)CC(=O)O3)C21 (mixture of isomers) and write its reported melting point.
Solution: 161 to 163 °C

Exercise: Read the entry COc1ccc(CCC(N)CC(=O)O)cc1 (centres undefined) and write its reported melting point.
Solution: 180 to 184 °C

----------
Could you please report measured melting point for the items listed next?

Exercise: Read the entry CNC(=O)CC1CN=C(c2cc3cc(Oc4ccc(S(C)(=O)=O)cc4)cc(OC)c3[nH]2)S1 (stereo not given) and write its reported melting point.
Solution: 125 to 126 °C

Exercise: Read the entry `Nc1c(NCCCN(Cc2ccccc2)c2ccccn2)c(=O)c1=O` and write its reported melting point.
Solution: 228 to 231 °C

Exercise: Read the entry `COc1ccc(CCCN(Cc2ccccc2)C[C@@H](O)c2ccc(OCc3ccccc3)c(OCc3ccccc3)c2)cc1` and write its reported melting point.
Solution: 59 to 62 °C

Exercise: Read the entry `CC(C)N(Cc1cnc(-c2ncn3c2CN(C)C(=O)c2cc(F)ccc2-3)o1)C(C)C` and write its reported melting point.
Solution: 176 to 178 °C

Exercise: Read the entry `O=C(c1cc2ccc3[nH]ccc3c2[nH]1)N1CCC(Cc2ccccc2)CC1` and write its reported melting point.
Solution: 186 to 188 °C

Exercise: Read the entry `OCc1cnc2cc(Br)ccc2c1O` and write its reported melting point.
Solution: > 300 °C

Exercise: Read the entry `O=C(Nc1sc2c(c1C(=O)O)CCOC2)c1nn[nH]n1` and write its reported melting point.
Solution: > 250 °C

Exercise: Read the entry `CCOC(=O)C(O)=Cc1ncc(Cc2ccc(F)cc2)s1` and write its reported melting point.
Solution: 160 to 162 °C

Exercise: Read the entry `Cc1cc(C)c(CON)c(C)c1` and write its reported melting point.
Solution: 54 to 55 °C

Exercise: Read the entry `O=C(O)CCP(=O)(O)CCC(=O)O` and write its reported melting point.
Solution: 156 to 159 °C

----------
Could you please report measured melting point for the items listed next?

Exercise: Read the entry `CN(C)NC(=O)N1CCC(=Cc2cc(C(C)(C)C)c(O)c(C(C)(C)C)c2)C1=O` and write its reported melting point.
Solution: 133 to 134 °C

Exercise: Read the entry `c1csc(-c2nc3ccc(N4CCC(N5CCCC5)CC4)nn3c2-c2ccncc2)c1` and write its reported melting point.
Solution: 85 °C

Exercise: Read the entry `CSc1ccc(-n2c(-c3ccccn3)nc(SC)c(C#N)c2=O)cc1` and write its reported melting point.
Solution: 158 to 161 °C

Exercise: Read the entry CN1[C@H](Cc2ccc(C(N)=NO)cc2)[C@@H]2C(=O)N(Cc3ccccc3)C(=O)[C@@H]2C1(C)C (racemic) and write its reported melting point.
Solution: 189 to 192 °C

Exercise: Read the entry `Cn1nnnc1-c1cn(C)c2cc(N3CCOCC3)ccc2c1=O` and write its reported melting point.
Solution: 235 to 238 °C

----------
Could you please report measured melting point for the items listed next?

Exercise: Read the entry CC(c1ccccc1N1CCCCC1)C(C(N)=O)c1ccc(C(=O)N(C)C)cc1 (centres undefined) and write its reported melting point.
Solution: 148 to 150 °C

Exercise: Read the entry CN(C)C(N)=NC(=O)C(Br)c1c(Cl)cccc1Cl (centres undefined) and write its reported melting point.
Solution: 142 to 145 °C

Exercise: Read the entry `Cn1nc(-c2cc(C(=O)O)c(Cl)cc2Cl)c(Cl)c1OC(F)F` and write its reported melting point.
Solution: 159 to 160 °C

Exercise: Read the entry `CCCc1nc(C(N)=O)c2n1-c1ccc(Cl)cc1C(c1ccccc1Cl)=NC2` and write its reported melting point.
Solution: 298 to 300 °C

The values you see were collected from a melting point compilation (Tetko et al.; mined from patent text by program, amines drawn as free bases though some values may be those of a salt).
